assay.summary: HUVEC growth inhibition – cell-based, human, primary screen (AID 575);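 note: 100% = median of untreated cell wells with 0.1% DMSO on each plate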
condition.info: HUVEC proliferation, CellTiter-Glo luminescence, 72 h; at 10 µM; active compounds read low
test.readout: viability (%)
Give just the number in %; leave the unit off.

compound	unit.of.measure	viability
Cc1c2cnn(CC(=O)N3CCN(c4ncccn4)CC3)c(=O)c2c(C)n1Cc1ccc(F)cc1	%	106

What does the record list as viability for CC(C)(C)n1nnnc1C(c1ccccc1)N1CCc2ccccc2C1 (stereo unspecified) ?
42

Name the reported viability value associated with the compound Cc1nn(-c2ccc(F)cc2)c2sc(C(=O)N3CCCCCC3)cc12
92

Which viability value is on record for CCOC(=O)C1CCCn2c1nc1sc3c(c1c2=O)CCCC3 (stereo unspecified) ?
86.1

Query (compound): NC(=O)C1(N2CCCCC2)CCN(CC(=O)Nc2cc(Cl)ccc2Cl)CC1 ; field requested: viability
81.6

Please look up its viability: O=C(O)c1cccc(COCC(F)(F)C(F)F)c1
88.2
